- subject of test: Potassium/sodium hyperpolarization-activated cyclic nucleotide-gated channel 2 (Mus musculus, UniProt O88703)
- Sequence (O88703 whole entry): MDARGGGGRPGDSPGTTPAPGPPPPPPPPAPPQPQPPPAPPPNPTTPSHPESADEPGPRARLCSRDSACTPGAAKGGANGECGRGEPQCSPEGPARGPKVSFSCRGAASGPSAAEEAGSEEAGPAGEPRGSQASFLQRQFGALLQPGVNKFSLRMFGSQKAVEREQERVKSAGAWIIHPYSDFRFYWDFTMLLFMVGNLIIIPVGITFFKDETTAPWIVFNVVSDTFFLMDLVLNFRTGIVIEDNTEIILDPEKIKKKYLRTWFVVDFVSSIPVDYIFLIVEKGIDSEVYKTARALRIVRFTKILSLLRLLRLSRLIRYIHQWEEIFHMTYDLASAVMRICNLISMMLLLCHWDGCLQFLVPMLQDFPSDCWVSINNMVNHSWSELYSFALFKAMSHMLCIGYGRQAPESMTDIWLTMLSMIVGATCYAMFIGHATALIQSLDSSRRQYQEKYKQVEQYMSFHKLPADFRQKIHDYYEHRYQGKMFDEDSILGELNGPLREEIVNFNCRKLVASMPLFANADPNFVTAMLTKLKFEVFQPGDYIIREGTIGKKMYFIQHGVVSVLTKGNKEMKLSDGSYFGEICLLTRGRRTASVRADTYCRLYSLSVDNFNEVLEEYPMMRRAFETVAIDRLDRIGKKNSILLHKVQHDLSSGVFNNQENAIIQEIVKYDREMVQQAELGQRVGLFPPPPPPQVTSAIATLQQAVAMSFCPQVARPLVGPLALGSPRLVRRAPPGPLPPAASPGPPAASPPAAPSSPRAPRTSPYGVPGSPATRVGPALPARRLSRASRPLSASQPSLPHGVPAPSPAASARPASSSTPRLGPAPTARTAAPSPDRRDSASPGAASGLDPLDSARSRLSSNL
- method notes: Blockade of mouse HCN2 expressed in HEK293 cells at -120 f-current amplitude by patch-clamp electrophysiological assay
pEC50: −log10 of the molar value.
Classify by measured pEC50: fulfilled if it is equal to or exceeds 5, not fulfilled if it is smaller.

Example entries and their recorded answers appear below.
1) COc1ccc(CCN(C)C/C=C/CN2C=Cc3cc(OC)c(OC)cc3CC2=O)cc1OC ... not fulfilled
2) COc1ccc(CCN(C)CCCN2CCc3cc(OC)c(OC)cc3CC2=O)cc1OC ... fulfilled
3) COc1ccc(CCN(C)C/C=C\CN2C=Cc3cc(OC)c(OC)cc3CC2=O)cc1OC ... not fulfilled
4) COc1ccc(CCN(C/C=C\CN2C=Cc3cc(OC)c(OC)cc3CC2=O)C/C=C\CN2C=Cc3cc(OC)c(OC)cc3CC2=O)cc1OC ... not fulfilled
5) COc1ccc([C@@H](C)CN(C)C/C=C\CN2C=Cc3cc(OC)c(OC)cc3CC2=O)cc1OC ... fulfilled
6) COc1ccc([C@@H](C)CN(C/C=C\CN2C=Cc3cc(OC)c(OC)cc3CC2=O)C/C=C\CN2C=Cc3cc(OC)c(OC)cc3CC2=O)cc1OC ... not fulfilled

Determine whether measured pEC50 meets or exceeds 5 for `COc1cc2c(cc1OC)CC(=O)N(CCCN(C)C[C@H]1Cc3cc(OC)c(OC)cc31)CC2` fulfilled

Identify whether the reported pEC50 of the following molecule is 5 or greater: `COc1ccc([C@H](C)CN(C)C/C=C\CN2C=Cc3cc(OC)c(OC)cc3CC2=O)cc1OC` not fulfilled

Reported pEC50 reaches at least 5 for `COc1ccc([C@H](C)CN(C/C=C\CN2C=Cc3cc(OC)c(OC)cc3CC2=O)C/C=C\CN2C=Cc3cc(OC)c(OC)cc3CC2=O)cc1OC` ? not fulfilled
